# TESTED ON: HLA-A*0301 (human)
# PROTOCOL SUMMARY: competition with 125I-labelled standard peptide on purified HLA-A*0301, gel filtration
ASSAY METRIC: binding affinity ratio (IC50 of standard peptide / IC50 of test peptide)

[
  {
    "BINDER": "LLPPYASCH (modifications not checked) [… (PAP, position 306)]",
    "OBS VALUE": 0.001
  },
  {
    "BINDER": "LSLLSLYGIH (modifications not checked) [… (PAP, position 241)]",
    "OBS VALUE": 0.0003
  },
  {
    "BINDER": "LLEKMGGSA (modifications not checked) [… (PSM, position 305)]",
    "OBS VALUE": 0.0006
  },
  {
    "BINDER": "LLSYPNKTH (modifications not checked) [… (PSM, position 116)]",
    "OBS VALUE": 0.0006
  },
  {
    "BINDER": "LLHETDSAVA (modifications not checked) [… (PSM, position 4)]",
    "OBS VALUE": 0.0005
  }
]
